- study-system: Transient receptor potential cation channel subfamily V member 3 (Homo sapiens)
- Sequence (Q8NET8 whole entry): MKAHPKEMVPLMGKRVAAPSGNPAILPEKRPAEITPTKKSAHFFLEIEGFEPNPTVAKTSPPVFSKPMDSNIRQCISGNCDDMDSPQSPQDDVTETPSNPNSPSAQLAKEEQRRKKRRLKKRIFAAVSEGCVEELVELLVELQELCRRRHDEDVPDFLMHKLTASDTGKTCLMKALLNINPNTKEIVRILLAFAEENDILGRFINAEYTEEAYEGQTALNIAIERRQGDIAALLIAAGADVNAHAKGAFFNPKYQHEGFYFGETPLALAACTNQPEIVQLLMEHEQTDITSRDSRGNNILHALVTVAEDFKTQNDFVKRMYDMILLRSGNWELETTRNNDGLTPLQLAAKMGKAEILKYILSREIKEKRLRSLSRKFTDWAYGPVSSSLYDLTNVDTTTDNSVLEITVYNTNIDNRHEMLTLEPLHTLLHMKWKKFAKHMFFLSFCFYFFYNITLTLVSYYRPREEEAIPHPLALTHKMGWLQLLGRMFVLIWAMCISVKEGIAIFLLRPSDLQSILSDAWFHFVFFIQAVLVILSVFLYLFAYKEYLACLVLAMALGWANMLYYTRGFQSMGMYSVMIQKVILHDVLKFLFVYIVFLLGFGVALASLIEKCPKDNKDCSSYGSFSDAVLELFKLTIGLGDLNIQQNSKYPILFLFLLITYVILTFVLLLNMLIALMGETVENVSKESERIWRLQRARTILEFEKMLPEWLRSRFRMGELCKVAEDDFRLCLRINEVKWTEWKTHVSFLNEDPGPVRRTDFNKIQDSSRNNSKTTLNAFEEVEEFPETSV
- method-summary: Inhibition of human TRPV3 expressed in CHO cells assessed as reduction in 2-APB induced channel current at -80 mV by whole-cell patch clamp electrophysiology
- Type: cell-based
recorded-endpoint: IC50
Report field: quantity (unit follows the number).

## Task Given the compound C=C1CC[C@@H]2[C@](C)(CO)[C@H](O)CC[C@@]2(C)[C@@H]1/C=C/C1=CCOC1=O , what is its reported IC50?
## Result 0.56 µM
